Value source: ChEMBL document CHEMBL3988442

- Target or test system: Chromo domain-containing protein 1 (Saccharomyces cerevisiae (strain ATCC 204508 / S288c) (Baker's yeast)) (UniProt P32657)
- Sequence (P32657 whole entry, the tested form may be a part): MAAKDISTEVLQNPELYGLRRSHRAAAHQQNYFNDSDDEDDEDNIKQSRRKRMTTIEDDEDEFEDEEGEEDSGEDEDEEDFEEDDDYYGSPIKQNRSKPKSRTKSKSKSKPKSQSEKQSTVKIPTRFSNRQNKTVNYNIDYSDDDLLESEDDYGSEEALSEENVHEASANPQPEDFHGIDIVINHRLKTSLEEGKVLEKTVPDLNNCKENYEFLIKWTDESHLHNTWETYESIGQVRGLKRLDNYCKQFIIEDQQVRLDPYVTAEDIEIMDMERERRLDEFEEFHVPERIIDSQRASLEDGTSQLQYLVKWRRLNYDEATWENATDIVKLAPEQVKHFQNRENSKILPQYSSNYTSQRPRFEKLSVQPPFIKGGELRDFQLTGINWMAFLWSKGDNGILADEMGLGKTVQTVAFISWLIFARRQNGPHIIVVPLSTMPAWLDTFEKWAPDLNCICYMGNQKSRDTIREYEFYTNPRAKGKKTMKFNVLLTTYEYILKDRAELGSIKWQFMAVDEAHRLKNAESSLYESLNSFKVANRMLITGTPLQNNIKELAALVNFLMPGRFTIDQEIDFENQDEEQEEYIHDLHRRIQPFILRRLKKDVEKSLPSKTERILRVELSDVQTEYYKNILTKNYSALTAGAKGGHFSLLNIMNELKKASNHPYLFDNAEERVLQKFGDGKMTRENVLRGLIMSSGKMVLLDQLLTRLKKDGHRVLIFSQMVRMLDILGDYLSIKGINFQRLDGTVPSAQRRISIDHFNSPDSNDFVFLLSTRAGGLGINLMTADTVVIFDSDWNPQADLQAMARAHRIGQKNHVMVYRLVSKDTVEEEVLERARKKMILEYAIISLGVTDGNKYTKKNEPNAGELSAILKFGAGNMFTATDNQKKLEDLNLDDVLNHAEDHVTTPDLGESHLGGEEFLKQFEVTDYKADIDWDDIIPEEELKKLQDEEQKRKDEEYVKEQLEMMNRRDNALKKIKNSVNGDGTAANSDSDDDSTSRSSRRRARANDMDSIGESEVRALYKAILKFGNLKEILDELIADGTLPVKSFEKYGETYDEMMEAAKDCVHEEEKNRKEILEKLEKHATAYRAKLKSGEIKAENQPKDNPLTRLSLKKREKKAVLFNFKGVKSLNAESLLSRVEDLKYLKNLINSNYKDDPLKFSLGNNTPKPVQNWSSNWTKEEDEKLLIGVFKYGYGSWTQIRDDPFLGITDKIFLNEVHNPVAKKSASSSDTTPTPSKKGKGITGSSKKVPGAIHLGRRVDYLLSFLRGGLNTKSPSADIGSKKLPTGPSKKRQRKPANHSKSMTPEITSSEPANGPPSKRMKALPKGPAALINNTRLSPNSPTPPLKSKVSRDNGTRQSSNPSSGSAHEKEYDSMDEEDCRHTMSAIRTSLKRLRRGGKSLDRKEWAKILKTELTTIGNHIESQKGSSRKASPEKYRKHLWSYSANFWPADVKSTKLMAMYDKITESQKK
- Assay explanation: ScCHD-1 Enzyme Inhibition Assay; note: in the data most compounds retested in dose-response had high values
- Format: functional
- Set-up: scale not given: direction of the effect not stated beside the values
- Condition set: 30 µM
Measured Percent Effect, listed per entry.
Give the number; % is assumed, so skip it.

# Compound, Reported
measured = [
    ("CNC(=O)CS(=O)(=O)Cc1coc(-c2ccc(OC)cc2)n1", -2.91),
    ("Cc1ccc(N2CC[C@H]3C[C@@H](C(=O)N4CCOCC4)O[C@H]3C2)nn1", -1.79),
    ("c1csc(CN2CCO[C@H]3[C@H](OCCN4CCCC4)CC[C@@H]32)n1", -0.273),
]

Field: next compound
For NC(=O)c1ccc(CN2CCCC(N3CCCC3)C2)cc1 (stereo unspecified) , what is its reported Percent Effect?
-6.1

---

- Target or test system: Sialic acid-binding Ig-like lectin 9 (Homo sapiens)
- Assay explanation: Hs-Siglec9 ALPHAscreen SOP 20170721
- Set-up: scale not given: direction of the effect not stated beside the values
- Condition set: 10 µM
Below is a list of entries, each paired with its recorded Percent Effect value.
// units = %; emit number, no label

Field: example entries. Status: answers known.
# Compound, Target or test system, Readout kind, Reported
data = [
    ("Cc1noc([C@@H]2CCCN2C(=O)C2CCN(C(=O)C3CCC3)CC2)n1", "Sialic acid-binding Ig-like lectin 9 (Homo sapiens)", "Percent Effect", -1.91),
    ("COc1cc2nc(C)n(CC(=O)O)c(=O)c2cc1OC", "Sialic acid-binding Ig-like lectin 9 (Homo sapiens)", "Percent Effect", 2.01),
    ("CCN(Cc1ccc2c(c1)OCCO2)C(=O)NC(C)Cn1ccnc1 (stereo not given)", "Sialic acid-binding Ig-like lectin 9 (Homo sapiens)", "Percent Effect", -9.3),
    ("Cc1ccc2c(c1)OCCCC2NCc1nnc2n1CCCCC2 (stereo not given)", "Sialic acid-binding Ig-like lectin 9 (Homo sapiens)", "Percent Effect", 17.1),
]

Please look at the following compound next.
Tell me the measured Percent Effect of COc1cc(S(=O)(=O)N2CCCc3ccccc32)cc(C(=O)O)c1OC , please.
10.6

---

This section presents compounds with their documented Percent Effect values.
- Target or test system: Chromo domain-containing protein 1 (Saccharomyces cerevisiae (strain ATCC 204508 / S288c) (Baker's yeast)) (UniProt P32657)
- Assay explanation: ScCHD-1 Enzyme Inhibition Assay; note: in the data most compounds retested in dose-response had high values
- Type: functional
- Set-up: scale not given: direction of the effect not stated beside the values
- Condition set: 30 µM
Could you give me the number in %? Just the number is fine.

# Compound, Reported
rows = [
    ("Cc1nc(C2CCCN(C(=O)CO)C2)cc(N2CCOCC2)n1 (centres undefined)", -5.28),
    ("O=C(N[C@@H]1CN(Cc2cccs2)[C@@H]2CCCO[C@@H]21)C1CC1", -6.29),
    ("COc1cccc2ccn(CCC(=O)N3CCCC(C(=O)O)C3)c12 (centres undefined)", -7.67),
]

Item under review: CC(C)CN1CCC2(CCN(C(=O)c3ccc(F)cc3)CC2)C1=O . Reported Percent Effect?
-8.66

And for CN1[C@@H](C(=O)NCC2CC2)C[C@@H]2CN(Cc3ccco3)C[C@@H]21 ?
-4.24

Could you do the same for O=C(CCc1cnn(-c2ccccc2)c1)N1CCCC(n2cccn2)C1 (centres undefined) , please?
-11.6

Now this one: CC(C)c1nc(C(=O)N2CCCC(n3cncn3)C2)c[nH]1 (centres undefined)
-17

Another compound to look at: CCc1cnc(N)nc1NCCN1CCCCC1
-7.73

Request: Cc1cnn(CC2CCCN2Cc2coc(-c3ccccc3)n2)c1 (centres undefined)
-6.56

Next record, please: CC(=O)c1cccc(OCC(=O)NS(=O)(=O)c2ccc(C)s2)c1
-6.95

Next: Cc1ccc2oc(C(=O)N3CCCC(n4nc(C)cc4C)C3)cc2n1 (centres undefined)
3.09

Entry to check: Cc1ccc(C(N)c2cccc(S(C)(=O)=O)c2)cc1 (centres undefined)
-9.27

Moving on to the next compound: Cc1noc(C)c1CN(C)C(=O)c1ccc(NC2CC2)nc1
-4.25

O=C(CN1CCNCC1)N1CC[C@@H](c2ccc3ccccc3c2)[C@H](O)C1 ?
-3.45

Consider next the compound Cc1ncsc1C(=O)N(Cc1cccnc1)C1CC1 in the same way.
-2.14
